- assay.text: Stability of cannabinoid compounds and Vitamin E components in Beverage 2 (AB Red) by LCMSMS
- Format: physicochemical
- condition.details: stored at 21-25° C., 26 days
Category key, based on recorded Stability of Plant-Derived Cannabinoid Compounds in AB Red: low-valued = under 0.5 µg/mL, mid-valued = from 0.5 µg/mL up to 3 µg/mL, high-valued = 3 µg/mL and over

[
  {
    "compound": "CCCCCc1cc(O)c(C/C=C(\\C)CCC=C(C)C)c(O)c1",
    "answer.label": "high-valued"
  },
  {
    "compound": "CCCCCc1cc(O)c2c(c1)OC(C)(C)c1ccc(C)cc1-2",
    "answer.label": "mid-valued"
  },
  {
    "compound": "CCCCCc1cc(O)c2c(c1)OC(C)(C)[C@@H]1CCC(C)=C[C@@H]21 [D9 THC, delta-9-tetrahydrocannabinol, reference compound]",
    "answer.label": "high-valued"
  },
  {
    "compound": "C=C(C)[C@@H]1CCC(C)=C[C@H]1c1c(O)cc(CCCCC)c(C(=O)O)c1O",
    "answer.label": "mid-valued"
  },
  {
    "compound": "CCCCCc1cc(O)c2c(c1)OC(C)(CCC=C(C)C)C=C2 (stereo not drawn)",
    "answer.label": "low-valued"
  },
  {
    "compound": "CCCc1cc(O)c2c(c1)OC(C)(C)[C@@H]1CCC(C)=C[C@@H]21 [THCV, delta-9-tetrahydrocannabivarin]",
    "answer.label": "high-valued"
  },
  {
    "compound": "CCCCCc1cc2c(c(O)c1C(=O)O)[C@@H]1C=C(C)CC[C@H]1C(C)(C)O2 [D9 THCA, delta-9-tetrahydrocannabinolic acid]",
    "answer.label": "mid-valued"
  }
]

# evaluate next
Incoming: Exercise: read the entry C=C(C)[C@@H]1CCC(C)=C[C@H]1c1c(O)cc(CCC)cc1O and state which class it falls under.
Outgoing: low-valued

---

- assay.text: Stability of cannabinoid compounds and Vitamin E components in Beverage 1 (AB White) by LCMSMS
- Format: physicochemical
- condition.details: AB White stored at 8° C.; 480 days
quantity.measured: Stability of Plant-Derived Cannabinoid Compounds in AB White, 8° C.
For clarity, give the value followed by its unit.

Answered examples (3):
[
  {
    "molecule": "CCCCCc1cc(O)c2c(c1)OC(C)(C)c1ccc(C)cc1-2",
    "measured": "2.66 µg/mL"
  },
  {
    "molecule": "C=C(C)[C@@H]1CCC(C)=C[C@H]1c1c(O)cc(CCC)cc1O",
    "measured": "0.143 µg/mL"
  },
  {
    "molecule": "CCCCCc1cc2c(c(O)c1C(=O)O)[C@@H]1C=C(C)CC[C@H]1C(C)(C)O2 [D9 THCA, delta-9-tetrahydrocannabinolic acid]",
    "measured": "0.905 µg/mL"
  }
]

Query molecule follows.
get_value(item= CCCc1cc(O)c2c(c1)OC(C)(C)[C@@H]1CCC(C)=C[C@@H]21 [THCV, delta-9-tetrahydrocannabivarin] , readout=Stability of Plant-Derived Cannabinoid Compounds in AB White, 8° C.) returns 3.44 µg/mL

---

A collection of compounds and their measured Stability of Plant-Derived Cannabinoid Compounds in AB White, 21-25° C.
- assay.text: Stability of cannabinoid compounds and Vitamin E components in Beverage 1 (AB White) by LCMSMS
- Format: physicochemical
- condition.details: AB White stored at 21-25° C.; 10 days
Report only the number, with the unit µg/mL understood.

Example results:
[
  {
    "compound": "CCCCCc1cc(O)c(C/C=C(\\C)CCC=C(C)C)c(O)c1",
    "measured": 4.68
  },
  {
    "compound": "CCCCCc1cc(O)c2c(c1)OC(C)(CCC=C(C)C)C=C2 (stereo not shown)",
    "measured": 0.312
  },
  {
    "compound": "CCCCCc1cc(O)c2c(c1)OC(C)(C)c1ccc(C)cc1-2",
    "measured": 2.77
  }
]

Now, please, on to the next compound.
Memo: CCCCCc1cc2c(c(O)c1C(=O)O)[C@@H]1C=C(C)CC[C@H]1C(C)(C)O2 [D9 THCA, delta-9-tetrahydrocannabinolic acid] , reported Stability of Plant-Derived Cannabinoid Compounds in AB White, 21-25° C.: 0.935

---

- assay.text: Stability of cannabinoid compounds and Vitamin E components in Beverage 1 (AB White) by LCMSMS
- Type: physicochemical
- condition.details: AB White stored at 8° C.; 540 days
Stability of Plant-Derived Cannabinoid Compounds in AB White, 8° C. listing for selected compounds.
Response body: numeric value in µg/mL, unit text excluded.

[
  {
    "compound": "CCCc1cc(O)c2c(c1)OC(C)(C)[C@@H]1CCC(C)=C[C@@H]21 [THCV, delta-9-tetrahydrocannabivarin]",
    "measured": 3.32
  },
  {
    "compound": "C=C(C)[C@@H]1CCC(C)=C[C@H]1c1c(O)cc(CCC)cc1O",
    "measured": 0.139
  }
]

For this compound ( CCCCCc1cc2c(c(O)c1C(=O)O)[C@@H]1C=C(C)CC[C@H]1C(C)(C)O2 [D9 THCA, delta-9-tetrahydrocannabinolic acid] ), measured Stability of Plant-Derived Cannabinoid Compounds in AB White, 8° C. is 0.877

The compound listed as CCCCCc1cc(O)c2c(c1)OC1(C)CCC3C1C2C3(C)C (stereo not shown) has a reported Stability of Plant-Derived Cannabinoid Compounds in AB White, 8° C. of 0.514

For CCCCCc1cc(O)c2c(c1)OC(C)(C)[C@@H]1CCC(C)=C[C@@H]21 [D9 THC, delta-9-tetrahydrocannabinol, reference compound] the compound record lists Stability of Plant-Derived Cannabinoid Compounds in AB White, 8° C. as 11.27

Record CCCCCc1cc(O)c2c(c1)OC(C)(C)c1ccc(C)cc1-2 , field Stability of Plant-Derived Cannabinoid Compounds in AB White, 8° C.: 2.56

Record C=C(C)[C@@H]1CCC(C)=C[C@H]1c1c(O)cc(CCCCC)cc1O [CBD, cannabidiol, reference compound] , field Stability of Plant-Derived Cannabinoid Compounds in AB White, 8° C.: 26.51

Data point: CCCCCc1cc(O)c2c(c1)OC(C)(CCC=C(C)C)C=C2 (stereo not shown) ; Stability of Plant-Derived Cannabinoid Compounds in AB White, 8° C. = 0.299

Per the records, this compound ( CCCCCc1cc(O)c(C/C=C(\C)CCC=C(C)C)c(O)c1 ) has Stability of Plant-Derived Cannabinoid Compounds in AB White, 8° C. equal to 4.53

Entry C=C(C)[C@@H]1CCC(C)=C[C@H]1c1c(O)cc(CCCCC)c(C(=O)O)c1O , Stability of Plant-Derived Cannabinoid Compounds in AB White, 8° C. reported as 1.61

---

- assay.text: Stability of cannabinoid compounds and Vitamin E components in Beverage 1 (AB White) by LCMSMS
- Assay type: physicochemical
- condition.details: AB White stored at 21-25° C.; 11 days
quantity.measured: Stability of Plant-Derived Cannabinoid Compounds in AB White, 21-25° C. (µg/mL)
Dear colleague, please return just the value in µg/mL, with no unit written.

[
  {
    "molecule": "CCCCCc1cc(O)c2c(c1)OC(C)(CCC=C(C)C)C=C2 (centres unmarked) [CBC, cannabichromene]",
    "measured": 0.311
  }
]

The molecule listed as CCCCCc1cc2c(c(O)c1C(=O)O)[C@@H]1C=C(C)CC[C@H]1C(C)(C)O2 [D9 THCA, delta-9-tetrahydrocannabinolic acid] shows Stability of Plant-Derived Cannabinoid Compounds in AB White, 21-25° C. equal to 0.949

Stability of Plant-Derived Cannabinoid Compounds in AB White, 21-25° C. in this record for CCCc1cc(O)c2c(c1)OC(C)(C)[C@@H]1CCC(C)=C[C@@H]21 [THCV, delta-9-tetrahydrocannabivarin] : 3.59

Summary for this molecule, C=C(C)[C@@H]1CCC(C)=C[C@H]1c1c(O)cc(CCC)cc1O [CBDV, cannabidivarin] : Stability of Plant-Derived Cannabinoid Compounds in AB White, 21-25° C. is 0.150

Value of measured Stability of Plant-Derived Cannabinoid Compounds in AB White, 21-25° C. for the entry CCCCCc1cc(O)c(C/C=C(\C)CCC=C(C)C)c(O)c1 [CBG, cannabigerol] : 4.74

---

In this section, each of the compounds is paired with its reported Stability of Plant-Derived Cannabinoid Compounds in Powder Concentrate.
- assay.text: Stability of cannabinoid entourage and Vitamin E components of the powder concentrate by LCMSMS
- Format: physicochemical
- condition.details: powder stored at 21-25° C.; 420 days
Hi! Could you send only the number? It should be in mg/g powder, unit omitted.

Worked set:
[
  {
    "compound": "CCCCCc1cc(O)c2c(c1)OC(C)(C)c1ccc(C)cc1-2 [CBN, cannabinol]",
    "measured": 0.481
  },
  {
    "compound": "CCCCCc1cc(O)c(C/C=C(\\C)CCC=C(C)C)c(O)c1 [CBG, cannabigerol]",
    "measured": 1.11
  },
  {
    "compound": "C=C(C)[C@@H]1CCC(C)=C[C@H]1c1c(O)cc(CCCCC)c(C(=O)O)c1O [CBDA, cannabidiolic acid]",
    "measured": 0.420
  }
]

Then this compound:
Stability of Plant-Derived Cannabinoid Compounds in Powder Concentrate recorded for this compound, CCCc1cc(O)c2c(c1)OC(C)(C)[C@@H]1CCC(C)=C[C@@H]21 [THCV, delta-9-tetrahydrocannabivarin] , is 0.671
